- system: Estrogen receptor (Homo sapiens) (UniProt P03372)
- Sequence (P03372 whole entry): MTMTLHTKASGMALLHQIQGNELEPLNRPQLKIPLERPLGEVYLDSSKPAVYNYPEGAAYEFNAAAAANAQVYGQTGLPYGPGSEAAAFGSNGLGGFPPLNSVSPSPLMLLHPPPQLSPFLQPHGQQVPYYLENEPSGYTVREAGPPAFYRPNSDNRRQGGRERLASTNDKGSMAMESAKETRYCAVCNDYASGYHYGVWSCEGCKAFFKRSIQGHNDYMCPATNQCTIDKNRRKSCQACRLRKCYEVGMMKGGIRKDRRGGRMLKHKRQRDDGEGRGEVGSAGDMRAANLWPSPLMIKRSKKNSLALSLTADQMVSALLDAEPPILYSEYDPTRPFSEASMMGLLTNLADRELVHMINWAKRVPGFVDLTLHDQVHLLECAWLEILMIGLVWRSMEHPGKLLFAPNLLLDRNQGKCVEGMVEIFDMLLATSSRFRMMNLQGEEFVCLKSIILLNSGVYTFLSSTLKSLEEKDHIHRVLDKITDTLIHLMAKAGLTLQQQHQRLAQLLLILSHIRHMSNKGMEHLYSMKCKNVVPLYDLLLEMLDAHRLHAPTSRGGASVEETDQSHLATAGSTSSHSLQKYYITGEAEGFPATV
- method-summary: Downregulation of ERalpha expression in human MCF7 cells at 3 uM after 6 hrs by Western blot method relative to beta-actin
- Format: cell-based
Entries and their Activity values follow.
quantity-kind: Activity (%)

| smiles-data | quantity-kind | measurement-unit | readout-value |
| --- | --- | --- | --- |
| CCCC(CCC)(c1ccc(O)c(C)c1)c1ccc(O)c(C)c1 | Activity | % | 79 |
| CCCCCCCCOc1ccc(C(CCC)(CCC)c2ccc(O)c(C)c2)cc1C | Activity | % | 105 |
| CCCCCCCCCCOc1ccc(C(CCC)(CCC)c2ccc(O)c(C)c2)cc1C | Activity | % | 120 |
| CCCCCCNCCOc1ccc(C(CCC)(CCC)c2ccc(O)c(C)c2)cc1C | Activity | % | 185 |
| CCCCCCCCCCCCNCCOc1ccc(C(CCC)(CCC)c2ccc(O)c(C)c2)cc1C | Activity | % | 83 |
